System tested: hNAMPT protein (Homo sapiens (Human))
Test method notes: NAMPT enzyme assay (TR-FRET/HTRF, BodiPY ligand, anti 6His-Tb)
Assay type: binding
Assay setup: compound concentration 1 μM; read-out: Percent Inhibition
Recorded metric: inhibition at 1 µM (%)

1) N#CC1CCN(c2nc3ccc(C(=O)NCCCn4ccnc4)cc3nc2-c2ccccc2)C1 (stereo not drawn) [Compound I-106]
60
2) CC(C)Oc1nc2ccc(C(=O)NCCCc3ncc[nH]3)cc2nc1-c1ccc(Cl)cc1 [Compound I-222]
92
3) Cc1nc(C)c(-c2nc3ccc(C(=O)NCCCn4ccnc4)cc3nc2-c2ccccc2)s1 [Compound I-24]
88

---

System tested: hNAMPT protein (Homo sapiens (Human))
Test method notes: NAMPT enzyme assay (TR-FRET/HTRF, BodiPY ligand, anti 6His-Tb)
Assay type: binding
Assay setup: NAMPT IC50 range class; read-out: IC50
Recorded metric: IC50

1) Cn1cc(-c2nc3ccc(C(=O)NCCCn4ccnc4)cc3nc2-c2ccccc2)cn1
500 to 1000 nM
2) O=C(NCCCc1ncc[nH]1)c1ccc2nc(-c3ccc(F)cc3)c(-c3ccc(F)s3)nc2c1
< 100 nM
3) O=C(NCCc1ncc[nH]1)c1ccc2nc(-c3ccc(F)cc3)c(-c3ccc(F)cc3)nc2c1
2000 to 10000 nM
4) O=C(NCCCn1ccnc1)c1ccc2nc(-c3cccs3)c(-c3ccccc3)nc2c1
500 to 1000 nM
5) Nc1ccc(CCCNC(=O)c2ccc3nc(N4CCOCC4)c(-c4ccc(F)cc4)nc3c2)cn1
100 to 500 nM
6) O=C(NCCCc1ncc[nH]1)c1ccc2nc(-c3ccc(F)cc3)c(-c3cc(F)ccc3F)nc2c1
< 100 nM
7) CC(C)(C)OC(=O)NCC1CCN(C2CCN(c3nc4ccc(C(=O)NCCCn5ccnc5)cc4nc3-c3ccccc3)CC2)CC1
< 100 nM
8) O=C(NCCCc1ncc[nH]1)c1ccc2nc(-c3ccc(F)cc3)c(-c3cccc(Cl)c3F)nc2c1
< 100 nM
9) O=C(NCCCn1ccnc1)c1ccc2nc(N3CC4CC3CO4)c(-c3ccccc3)nc2c1 (stereo not drawn)
500 to 1000 nM
10) O=C(NCCCc1ncc[nH]1)c1ccc2nc(OC3COC3)c(-c3ccc(Cl)cc3)nc2c1
< 100 nM
11) NC(=O)c1cccc(-c2nc3ccc(C(=O)NCCCn4ccnc4)cc3nc2-c2ccccc2)c1
100 to 500 nM
12) O=C(NCCCc1ncc[nH]1)c1ccc2nc(-c3ccc(F)cc3)c(-c3cc(Cl)ccc3Cl)nc2c1
< 100 nM
13) NCc1ccc(-c2nc3cc(C(=O)NCCc4cccnc4)ccc3nc2-c2ccccc2)cc1
2000 to 10000 nM
14) O=C(NCCCn1ccnc1)c1ccc2nc(N3CCC3)c(-c3ccccc3)nc2c1
2000 to 10000 nM
15) CC(C)Oc1nc2ccc(C(=O)NCCCc3ncc[nH]3)cc2nc1-c1cccs1
< 100 nM
16) O=C(NCCCc1ncc[nH]1)c1ccc2nc(C3=CCOCC3)c(-c3cccs3)nc2c1
< 100 nM
17) O=C(NCCc1ncc[nH]1)c1ccc2nc(-c3ccc(F)cc3)c(-c3cccc(Cl)c3)nc2c1
500 to 1000 nM
18) Cc1nccn1CCNC(=O)c1ccc2nc(-c3ccc(F)cc3)c(-c3ccc(F)cc3)nc2c1
1000 to 2000 nM
19) C[C@@H]1CN(c2nc3cc(C(=O)NCCCn4ccnc4)ccc3nc2-c2ccccc2)C[C@H](C)O1
1000 to 2000 nM
20) O=C(NCCCc1ncc[nH]1)c1ccc2nc(N3CCC(N4CCOCC4)CC3)c(-c3ccc(F)cc3)nc2c1
< 100 nM
21) CN1CCN(c2nc3cc(C(=O)NCCCn4ccnc4)ccc3nc2-c2ccccc2)CC1=O
2000 to 10000 nM

---

System tested: hNAMPT protein (Homo sapiens (Human), UniProt P43490)
Sequence (P43490 whole entry): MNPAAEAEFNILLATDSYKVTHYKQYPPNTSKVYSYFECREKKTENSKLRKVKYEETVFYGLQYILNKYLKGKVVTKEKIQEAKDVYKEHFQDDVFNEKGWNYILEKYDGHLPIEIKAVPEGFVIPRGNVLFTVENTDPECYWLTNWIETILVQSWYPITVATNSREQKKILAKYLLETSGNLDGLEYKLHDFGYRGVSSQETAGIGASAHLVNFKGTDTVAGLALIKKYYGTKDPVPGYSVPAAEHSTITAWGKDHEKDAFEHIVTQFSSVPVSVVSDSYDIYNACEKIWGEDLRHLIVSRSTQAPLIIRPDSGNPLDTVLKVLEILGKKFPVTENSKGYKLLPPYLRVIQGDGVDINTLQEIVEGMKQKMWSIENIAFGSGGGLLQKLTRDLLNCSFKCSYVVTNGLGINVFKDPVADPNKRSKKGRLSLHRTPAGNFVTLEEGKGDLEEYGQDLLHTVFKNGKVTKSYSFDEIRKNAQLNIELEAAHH
Test method notes: NAMPT enzyme assay (TR-FRET/HTRF, BodiPY ligand, anti 6His-Tb)
Format: binding
Assay setup: compound concentration 1 μM; read-out: Percent Inhibition
Threshold check on inhibition at 1 µM: at or above 90% gives Met, strictly below gives Not met.

1) COc1cccc(-c2nc3cc(C(=O)NCCCc4cccnc4)ccc3nc2N2CCC(O)CC2)c1
Met
2) O=C(NCCCc1ccncc1)c1ccc2nc(-c3ccc(F)cc3)c(-c3ccc(F)cc3)nc2c1
Not met
3) O=C(NCCCc1ncc[nH]1)c1ccc2nc(N3CCCCC3)c(-c3ccc(Cl)cc3)nc2c1
Met
4) COc1cc(-c2nc3cc(C(=O)NCc4ccc5nccn5c4)ccc3nc2OC(C)C)c(F)cn1
Not met
5) O=C(NCCCc1ncc[nH]1)c1ccc2nc(-c3ccc(F)cc3)c(-c3cccc(OC(F)(F)F)c3)nc2c1
Not met
6) O=C(NCCCc1ncc[nH]1)c1ccc2nc(OCC3CCC3)c(-c3ccc(F)cc3)nc2c1
Met
7) O=C(NCCCn1ccnc1)c1ccc2nc(-c3ccc4c(c3)CCO4)c(-c3ccccc3)nc2c1
Not met
8) O=C(NCCCc1cccnc1)c1ccc2nc(N3CCC(O)CC3)c(-c3ccc(F)cc3)nc2c1
Met
9) Cn1cc(COc2nc3ccc(C(=O)NCCCc4ncc[nH]4)cc3nc2-c2ccc(F)cc2)cn1
Met
10) O=C(NCCc1c[nH]cn1)c1ccc2nc(-c3ccccc3)c(-c3ccccc3)nc2c1
Not met
11) O=C(NCCCn1ccnc1)c1ccc2nc(-c3ccccc3)c(-c3ccc(Cl)cc3)nc2c1
Met
12) Cc1ccc(-c2nc3cc(C(=O)NCCCc4ncc[nH]4)ccc3nc2-c2ccc(F)cc2)cc1F
Not met
13) COc1nc2ccc(C(=O)NCCCc3ncc[nH]3)cc2nc1-c1ccc(Cl)cc1
Met
14) N#Cc1ccc(Cl)c(-c2nc3cc(C(=O)NCCCc4ncc[nH]4)ccc3nc2-c2ccc(F)cc2)c1
Met
15) O=C(NCCCc1ncc[nH]1)c1ccc2nc(N3CCCCC3)c(-c3ccc(F)cc3)nc2c1
Met
16) O=C(NCCCn1ccnc1)c1ccc2nc(-c3cccnc3)c(-c3ccccc3)nc2c1
Not met
17) O=C(NCCCn1ccnc1)c1ccc2nc(-c3ccncc3)c(-c3ccccc3)nc2c1
Not met
18) O=C(NCCCc1ncc[nH]1)c1ccc2nc(-c3ccc(F)cc3)c(-c3cccs3)nc2c1
Met
19) COc1cccc(-c2nc3cc(C(=O)NCCCc4ncc[nH]4)ccc3nc2N2CCC(N3CCOCC3)CC2)c1
Met
20) O=C(c1ccc2nc(-c3ccc(F)cc3)c(-c3ccc(F)cc3)nc2c1)N1CCCC1Cc1cccnc1 (stereo not shown)
Not met
21) CC(C)Oc1nc2ccc(C(=O)NCCCc3ncc[nH]3)cc2nc1-c1ccc(Cl)s1
Met
22) Cn1cncc1CCNC(=O)c1ccc2nc(N3CCC(N4CCOCC4)CC3)c(-c3ccc(F)cc3)nc2c1
Met
23) O=C(NCCCc1ncc[nH]1)c1ccc2nc(C3CC3)c(-c3ccc(F)cc3)nc2c1
Not met
24) O=C(NCCCn1ccnc1)c1ccc2nc(-c3cccc(OC(F)(F)F)c3)c(-c3ccccc3)nc2c1
Not met

---

System tested: hNAMPT protein (Homo sapiens (Human), UniProt P43490)
Test method notes: NAMPT enzyme assay (TR-FRET/HTRF, BodiPY ligand, anti 6His-Tb)
Assay type: binding
Assay setup: compound concentration 1 μM; read-out: Percent Inhibition
Recorded metric: inhibition at 1 µM

1. CO[C@H]1C[C@H](Oc2nc3ccc(C(=O)NCCCc4ncc[nH]4)cc3nc2-c2ccc(F)cc2)C1
> 99%
2. O=C(NCCCc1ncc[nH]1)c1ccc2nc(-c3ccc(F)cc3)c(-c3cncs3)nc2c1
> 99%
3. COC1CN(c2nc3ccc(C(=O)NCCCc4ncc[nH]4)cc3nc2-c2ccc(F)cc2)C1
> 99%
4. O=C(NCCCc1ncc[nH]1)c1ccc2nc(O[C@@H]3CCOC3)c(-c3ccc(F)cc3)nc2c1
> 99%
5. O=C(NCCCc1ncc[nH]1)c1ccc2nc(C3=CCC(O)CC3)c(-c3cccs3)nc2c1 (stereo not drawn)
> 99%
6. CN1CCC(COc2nc3ccc(C(=O)NCCCc4ncc[nH]4)cc3nc2-c2ccc(F)cc2)CC1
> 99%

---

System tested: hNAMPT protein (Homo sapiens (Human), UniProt P43490)
Test method notes: NAMPT enzyme assay (TR-FRET/HTRF, BodiPY ligand, anti 6His-Tb)
Assay type: binding
Assay setup: NAMPT inhibition, IC50 range class; read-out: IC50
pIC50: −log10 of the molar value.
Recorded metric: pIC50

1. CC(C)Oc1nc2cc(F)c(C(=O)NCCCc3ncc[nH]3)cc2nc1-c1ccc(F)cc1 [Compound I-491]
6.30 to 7.00
2. O=C(NCCCc1ncc[nH]1)c1ccc2nc(OCc3ccccn3)c(-c3ccc(F)cc3)nc2c1 [Compound I-396]
> 7.00
3. Cc1cnn(-c2nc3ccc(C(=O)NCCCc4ncc[nH]4)cc3nc2-c2ccc(F)cc2)c1 [Compound I-503]
6.30 to 7.00
4. Cc1cc(-c2nc3cc(C(=O)NCCCc4ncc[nH]4)ccc3nc2-c2ccc(F)cc2)ccc1F [Compound I-471]
> 7.00
5. COC1CC(Oc2nc3ccc(C(=O)NCCCc4ncc[nH]4)cc3nc2-c2ccc(F)cc2)C1 (stereo not drawn) [Compound I-427]
> 7.00
6. Cc1cc(-c2nc3cc(C(=O)NCCCc4ncc[nH]4)ccc3nc2-c2ccc(F)cc2)c(C)s1 [Compound I-422]
> 7.00
7. O=C(NCCc1ncc[nH]1)c1ccc2nc(-c3ccc(F)cc3)c(-c3ccc(Cl)s3)nc2c1 [Compound I-443]
6.30 to 7.00
8. COc1cc(F)cc(-c2nc3cc(C(=O)NCCCc4ncc[nH]4)ccc3nc2-c2ccc(F)cc2)c1 [Compound I-512]
> 7.00
9. N#Cc1ccc(F)c(-c2nc3cc(C(=O)NCCCc4ncc[nH]4)ccc3nc2-c2ccc(F)cc2)c1 [Compound I-501]
> 7.00
10. O=C(NCCCc1ncc[nH]1)c1ccc2nc(-c3ccc(F)cc3)c(-c3cc(F)ccc3Cl)nc2c1 [Compound I-399]
> 7.00
11. COc1cccc(-c2nc3cc(C(=O)NCCCc4ncc[nH]4)ccc3nc2-c2ccc(F)cc2)c1F [Compound I-398]
> 7.00
12. O=C(NCCCc1ncc[nH]1)c1ccc2nc(-c3ccc(F)cc3)c(-c3ccc4c(c3)OCO4)nc2c1 [Compound I-461]
6.30 to 7.00
